- STUDY_SYSTEM: HLA-B*51:01
- METHOD: IEDB peptide-MHC binding, purified MHC/competitive/radioactivity; filed as Kd, often an IC50 or EC50 that approximates it; bounds were set here for any values at or beyond the usual limits of such assays
- STUDY_CONDITIONS: source organism: Vaccinia virus WR
pKd: −log10 of the molar value.
# pKd per record follows
MEASURE_NAME: pKd

>>> print(df.to_string())
     sequence  study_system  relation  data_value
0  MPSACANGWI   HLA-B*51:01         ≤        4.36
1  TPTIEDDKIV   HLA-B*51:01         =        5.00
2  DPVYISQFSY   HLA-B*51:01         ≤        4.16
3   HVDGKILFV   HLA-B*51:01         ≤        4.16
4  FPDIPVNNNI   HLA-B*51:01         =        7.18
